Tested on: SNB-75 CNS
Test: NCI tumour cell line growth inhibition, 48 h
TGI overview
metric_name: TGI (µM)

compound	subject_of_test	metric_name	value_units	relation	quantitative_readout
COc1ccc2c(ccc3c(COC(=O)NC(C)C)c(COC(=O)NC(C)C)n(C)c32)c1	SNB-75 CNS	TGI	µM	=	15.8
NC(N)=NS(=O)(=O)c1ccc(Nc2c3ccccc3nc3c(C(=O)Nc4ccc(S(N)(=O)=O)cc4)ccc(Cl)c23)cc1	SNB-75 CNS	TGI	µM	>	100
Nc1ncnc2c1ncn2[C@H]1CC[C@@H](NO)C1	SNB-75 CNS	TGI	µM	>	100
C[n+]1ccc(-c2c3nc(c(-c4cc[n+](C)cc4)c4ccc([n-]4)c(-c4cc[n+](C)cc4)c4nc(c(-c5cc[n+](C)cc5)c5ccc2[n-]5)C=C4)C=C3)cc1.[I-].[Zn+2]	SNB-75 CNS	TGI	µM	=	32.8
CCOC(=O)c1ccc(NC(=O)SCCC(=O)O)cc1	SNB-75 CNS	TGI	µM	=	23.1
CCC[CH2][Sn]1([CH2]CCC)[O]C(=O)c2ccc(C)cc2[O]1	SNB-75 CNS	TGI	µM	=	0.659
O=C(COC(=O)c1cccc2c(=O)c3ccccc3[nH]c12)Nc1ccccc1	SNB-75 CNS	TGI	µM	>	100
CCCC(=O)O.CCCC(=O)O.CCCC(=O)O.CCCC(=O)O.[Rh].[Rh]	SNB-75 CNS	TGI	µM	=	2.62
CCN(CC)CCCC(C)N=c1cc(Nc2cc(=NC(C)CCCN(CC)CC)c3cc(OC)ccc3o2)oc2ccc(OC)cc12 (stereo unspecified)	SNB-75 CNS	TGI	µM	=	2.93
CC(O)C1(CNc2cc(Cl)nc(N)n2)CC(CCc2ccccc2)C1 (stereo unspecified)	SNB-75 CNS	TGI	µM	=	40
COC(=O)[C@H](Cc1ccc(O)cc1)NC(=O)[C@@H](OC)[C@@H]1Cc2cc3cc(OC4CC(OC5CC(O)C(O)C(C)O5)C(O)C(C)O4)c(C)c(O)c3c(O)c2C(=O)[C@H]1OC1CC(OC2CC(OC3CC(C)(O)C(O)C(C)O3)C(O)C(C)O2)C(O)C(C)O1 (stereo partly specified)	SNB-75 CNS	TGI	µM	=	1.08
O=C(NCc1ccncc1)C12CC3CC(C1)CC(c1ccc(Cl)cc1)(C3)C2	SNB-75 CNS	TGI	µM	=	27.2
COc1c(OC/C=C(\C)CCC=C(C)C)ccc2ccc(=O)oc12	SNB-75 CNS	TGI	µM	>	100
CNc1nnc(CNc2ccc(-c3nnc(NC)n3N)cc2)n1N	SNB-75 CNS	TGI	µM	>	100
Clc1cc2n[se]nc2cc1Cl	SNB-75 CNS	TGI	µM	>	100
COc1cc2c(cc1OC)C(=O)Cc1ccc(OC)c(OC)c1CN(C)CC2	SNB-75 CNS	TGI	µM	>	100
Cc1ccc(-c2nc(N3CCCNCC3)c3oc(-c4ccccc4)nc3n2)cc1	SNB-75 CNS	TGI	µM	=	2.73
CC(=O)C1(N=Nc2ccc(S(N)(=O)=O)cc2)CCOC1=O (stereo unspecified)	SNB-75 CNS	TGI	µM	>	100
CC(=O)N1CC(=O)N2C(=O)/C(=C/c3ccc(Cl)cc3)N=C12	SNB-75 CNS	TGI	µM	>	100
COc1ccc2nc3ccccc3c(NCCCN(C)CCCl)c2c1	SNB-75 CNS	TGI	µM	=	1.47
OC1C2CCC1C1C3C=CC(C3)C21 (stereo unspecified)	SNB-75 CNS	TGI	µM	>	100
[O-][n+]1onc2c1/C(=N/O)CCC2	SNB-75 CNS	TGI	µM	>	100
CCc1ccc2c(c1)N(CCO)C1=C(C(=O)OC1)C2c1cccc(Cl)c1 (stereo unspecified)	SNB-75 CNS	TGI	µM	=	14.6
COC(=O)/C=C/c1cn(C(C)=O)c2ccc(Br)cc12	SNB-75 CNS	TGI	µM	=	55.2
CC(C)(C)OC(=O)NC(CO)c1cccc(OCc2ccccc2)c1 (stereo unspecified)	SNB-75 CNS	TGI	µM	>	100
O=c1[nH]cnc2c1CCCN2	SNB-75 CNS	TGI	µM	>	100
CC(C)SC(NC(=O)C1C(C)(C)CCC1(C)C)C(=O)O (stereo unspecified)	SNB-75 CNS	TGI	µM	>	100
Brc1cc2c(cc1C1SCCS1)OCO2	SNB-75 CNS	TGI	µM	>	100
CC(C)(C)c1ccc(/C=N/NC(=O)CSCC(=O)N/N=C/c2ccc(C(C)(C)C)cc2)cc1	SNB-75 CNS	TGI	µM	=	20.1
COC(=O)/C=C\C(C#N)(C#N)N=Cc1ccc(Br)s1	SNB-75 CNS	TGI	µM	=	29.4
CC(=O)OCCOc1cc2c([nH]c3ccccc32)c(C)c2cccc1-2	SNB-75 CNS	TGI	µM	=	3.51
O=C1OC(c2ccccc2)(c2cc(Br)c(O)c(Br)c2)c2ccccc21 (stereo unspecified)	SNB-75 CNS	TGI	µM	=	72
C=C(CN1CCN(c2cccc(C(F)(F)F)n2)CC1)c1ccc(C(=S)Nc2ccccc2N)cc1	SNB-75 CNS	TGI	µM	>	100
CCOC(=O)/C(=C(/C)NCC(C)C)c1cc(O)c(O)c2c(C)cc(=O)[nH]c12	SNB-75 CNS	TGI	µM	=	29.8
CN(C)Cc1cc(C=O)cc(CN(C)C)c1O	SNB-75 CNS	TGI	µM	>	100
Cl/C(=C\C=Nc1ccc(I)cc1)c1ccc2ccccc2c1	SNB-75 CNS	TGI	µM	>	79.9
COc1cc(Nc2nc3ccc(C(F)(F)F)cc3nc2C(=O)O)cc(OC)c1OC	SNB-75 CNS	TGI	µM	>	100
CC(C)(C)OC(=O)NC1CCC(C(C)(C)C)CC1 (stereo unspecified)	SNB-75 CNS	TGI	µM	>	100
CCOC(=O)/C(C#N)=C1/C(O)=C(C(=O)OC)C(C(=O)OC)=C1C(=O)OC	SNB-75 CNS	TGI	µM	>	100
O=C(NC1C2CC3CC(C2)CC1C3)c1cc(/C=C/c2ccccc2)[nH]c(=S)n1 (stereo unspecified)	SNB-75 CNS	TGI	µM	>	100
Cn1/c(=N\N=C(\CNCCO)[C@@H](O)[C@@H]2OC(c3ccccc3)OC[C@H]2O)sc2ccccc21 (stereo partly specified)	SNB-75 CNS	TGI	µM	=	32.3
